assay_target: T1, rat α-CGRP (1-37) (rat, C-terminal amide; N-terminal biotin when captured on the SA chip)
T1 construct: also called rat α (1-37); α-rat
T1 peptide: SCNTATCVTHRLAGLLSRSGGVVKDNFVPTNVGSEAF
test_method_notes: Biacore, 37°C, Fab over CGRP on SA chip
For each record, check the reported koff: if it is below 0.005 s⁻¹ write criterion met, else write criterion not met.

G1 variant M3 Fab (Fab, V domains shown, Fab; constant domains as m1) VH: EVQLVESGGGLVQPGGSLRLSCAASGFTFSNYWISWVRQAPGKGLEWVAEIRSESDASATHYAEAVKGRFTISRDNAKNSLYLQMNSLRAEDTAVYYCASYFDYGLAIQNYWGQGTLVTVSS VL: EIVLTQSPATLSLSPGERATLSCKASKRVTTYVSWYQQKPGQAPRLLIYGASNRYLGIPARFSGSGSGTDFTLTISSLEPEDFAVYYCSQSYNYPYTFGQGTKLEIK	criterion met

stdin: Decide: koff of G1 variant M82 Fab (Fab, V domains shown, Fab; constant domains as m1) VH: EVQLVESGGGLVQPGGSLRLSCAASGFTFSNYWISWVRQAPGKGLEWVAEIRSESDNSATHYAEAVKGRFTISRDNAKNSLYLQMNSLRAEDTAVYYCTVYFDYGLAIQNYWGQGTLVTVSS VL: EIVLTQSPATLSLSPGERATLSCKASKNVVTYVSWYQQKPGQAPRLLIYGHSNRYTGIPARFSGSGSGTDFTLTISSLEPEDFAVYYCSQSYNYPYTFGQGTKLEIK strictly below 0.005 s⁻¹?
stdout: criterion not met

stdin: Identify whether the binder G1 variant M72 Fab (Fab, V domains shown, Fab; constant domains as m1) VH: EVQLVESGGGLVQPGGSLRLSCAASGFTFSNYWISWVRQAPGKGLEWVAEIRSKSDASATHYAEAVKGRFTISRDNAKNSLYLQMNSLRAEDTAVYYCTVYFDYGLAIQNYWGQGTLVTVSS VL: EIVLTQSPATLSLSPGERATLSCKASKNVGTYVSWYQQKPGQAPRLLIYGASNRYSGIPARFSGSGSGTDFTLTISSLEPEDFAVYYCSQSYNYPYTFGQGTKLEIK records koff below 0.005 s⁻¹.
stdout: criterion met

stdin: Consider the binder G1 variant M75 Fab (Fab, V domains shown, Fab; constant domains as m1) VH: EVQLVESGGGLVQPGGSLRLSCAASGFTFSNYWISWVRQAPGKGLEWVAEIRSKSDVSATHYAEAVKGRFTISRDNAKNSLYLQMNSLRAEDTAVYYCTVYFDYGLAIQNYWGQGTLVTVSS VL: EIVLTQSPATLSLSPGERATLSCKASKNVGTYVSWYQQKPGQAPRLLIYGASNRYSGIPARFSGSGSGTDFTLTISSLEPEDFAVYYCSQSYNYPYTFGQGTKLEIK . Is its koff strictly less than 0.005 s⁻¹?
stdout: criterion not met

stdin: Lab note: confirm whether the reported koff for this binder is below 0.005 s⁻¹, equality not counting. binder: G1 variant M84 Fab (Fab, V domains shown, Fab; constant domains as m1) VH: EVQLVESGGGLVQPGGSLRLSCAASGFTFSNYWISWVRQAPGKGLEWVAEIRSNSDNSATHYAEAVKGRFTISRDNAKNSLYLQMNSLRAEDTAVYYCTVYFDYGLAIQNYWGQGTLVTVSS VL: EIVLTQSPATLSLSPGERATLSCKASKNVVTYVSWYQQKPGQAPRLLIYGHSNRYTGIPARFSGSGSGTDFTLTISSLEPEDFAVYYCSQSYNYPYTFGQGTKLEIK
stdout: criterion not met

stdin: I'd appreciate it if you could check whether G1 variant M77 Fab (Fab, V domains shown, Fab; constant domains as m1) VH: EVQLVESGGGLVQPGGSLRLSCAASGFTFSNYWISWVRQAPGKGLEWVAEIRSKSDDSATHYAEAVKGRFTISRDNAKNSLYLQMNSLRAEDTAVYYCTVYFDYGLAIQNYWGQGTLVTVSS VL: EIVLTQSPATLSLSPGERATLSCKASKNVSTYVSWYQQKPGQAPRLLIYAASNRYTGIPARFSGSGSGTDFTLTISSLEPEDFAVYYCSQSYNYPYTFGQGTKLEIK has koff smaller than 0.005 s⁻¹.
stdout: criterion not met

stdin: Determine whether this binder shows koff lower than 0.005 s⁻¹ (ties excluded): G1 variant M61 Fab (Fab, V domains shown, Fab; constant domains as m1) VH: EVQLVESGGGLVQPGGSLRLSCAASGFTFSNYWISWVRQAPGKGLEWVAEIRSQSDNSATFYAEAVKGRFTISRDNAKNSLYLQMNSLRAEDTAVYYCTVYFDYGLAIQNYWGQGTLVTVSS VL: EIVLTQSPATLSLSPGERATLSCKASKNVGTYVSWYQQKPGQAPRLLIYGHSNRYLGIPARFSGSGSGTDFTLTISSLEPEDFAVYYCSQSYNYPYTFGQGTKLEIK
stdout: criterion not met
